Field: pKd. Provide a value for each of the binders that follow.
# target under test: T1, TP-51 peptide (aa 352-414 of SEQ ID NO:1) (human)
# T1 construct: Synthetic peptide (Pepscan)
# T1 peptide: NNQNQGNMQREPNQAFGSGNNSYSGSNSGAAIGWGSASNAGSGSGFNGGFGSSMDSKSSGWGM
# assay protocol: SPR 8K, mAb captured, TP-51 injected
Give bare numbers, as −log10 of the molar value.

I'm hoping you can list pKd for every binder here, please.
1. hACI-7069-633B12-Ab1_H16L14 (IgG4) (antibody, V domains shown) VH: EVQLVQSGAEVKKPGASVKVSCKASGFTFTEYSMHWVRQAPGQRLEWMGGINPGNAGTSYNQKFKGRVTITVDTSASTAYMELSSLRSEDTAVYYCARESWGQGTTVTVSS VL: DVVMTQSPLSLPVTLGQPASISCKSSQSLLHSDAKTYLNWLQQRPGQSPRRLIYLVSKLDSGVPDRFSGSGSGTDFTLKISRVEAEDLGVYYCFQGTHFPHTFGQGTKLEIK
2. hACI-7069-633B12-Ab1_H19L17 (IgG4) (antibody, V domains shown) VH: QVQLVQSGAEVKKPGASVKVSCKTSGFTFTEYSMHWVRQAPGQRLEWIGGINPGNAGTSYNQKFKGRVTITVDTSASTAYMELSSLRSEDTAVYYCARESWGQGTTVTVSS VL: DVVMTQSPLSLPVTLGQPASISCKSSQSLLHSDAKTYLNWLLQRPGQSPRRLIYLVSKLDSGVPDRFSGSGSGTDFTLKISRVEAEDLGVYYCFQGTHFPHTFGQGTKLEIK
3. hACI-7069-633B12-Ab1_H19L19 (IgG4) (antibody, V domains shown) VH: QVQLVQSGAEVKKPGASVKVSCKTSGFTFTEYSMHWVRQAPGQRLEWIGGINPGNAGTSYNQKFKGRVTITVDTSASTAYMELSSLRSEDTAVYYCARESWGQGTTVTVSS VL: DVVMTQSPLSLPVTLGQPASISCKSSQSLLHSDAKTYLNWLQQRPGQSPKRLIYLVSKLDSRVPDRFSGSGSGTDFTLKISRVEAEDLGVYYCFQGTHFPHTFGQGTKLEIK

[8.00, 7.88, 8.64]

Request the reported pKd associated with hACI-7069-633B12-Ab1_H19L18 (IgG4) (antibody, V domains shown) VH: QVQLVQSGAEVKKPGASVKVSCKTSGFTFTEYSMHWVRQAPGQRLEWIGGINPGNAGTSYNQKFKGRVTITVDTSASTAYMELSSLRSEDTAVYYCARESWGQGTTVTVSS VL: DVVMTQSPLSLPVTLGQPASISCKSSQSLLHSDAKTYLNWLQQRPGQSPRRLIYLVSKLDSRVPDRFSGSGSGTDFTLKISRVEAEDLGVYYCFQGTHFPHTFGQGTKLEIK 8.72

# credit: patent US20230322908A1
